- Tested on: RARb homodimer (NR concentration 270 nM)
- procedure_text: PBM binding z-score (relative to random genomic background probes); higher = stronger binding; sequences stand for … in GC…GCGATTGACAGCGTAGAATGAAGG
quantity_name: PBM binding z-score

Go through the items and report each one's PBM binding z-score.
1. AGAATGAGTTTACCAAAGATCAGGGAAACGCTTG
2. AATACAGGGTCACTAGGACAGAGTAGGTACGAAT
3. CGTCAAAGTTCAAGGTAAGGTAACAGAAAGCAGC
4. ACTCGGAGGAGAAAGGTCAGAGCTACGCCAGTGA
5. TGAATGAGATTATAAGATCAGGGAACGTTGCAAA
6. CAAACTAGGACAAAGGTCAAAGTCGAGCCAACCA
7. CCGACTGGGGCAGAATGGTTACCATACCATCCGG
8. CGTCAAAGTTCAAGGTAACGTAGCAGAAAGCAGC

Response:
-0.757
3.32
3.86
4.21
-1.01
4.67
-0.435
3.85

Could I get PBM binding z-score for every one of these entries?
1. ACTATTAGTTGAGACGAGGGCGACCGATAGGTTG
2. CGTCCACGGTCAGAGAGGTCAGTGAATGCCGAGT
3. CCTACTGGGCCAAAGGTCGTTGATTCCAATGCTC
4. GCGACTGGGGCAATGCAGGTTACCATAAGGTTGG

Response:
[0.339, 4.32, 2.03, 1.14]

###

- System: LXRb:RXRa (NR concentration 270 nM, RXRa partner concentration 90 nM)
- procedure_text: PBM binding z-score (relative to random genomic background probes); higher = stronger binding; sequences stand for … in GC…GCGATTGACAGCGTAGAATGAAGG
quantity_name: PBM binding z-score
One number for each entry.

Answered examples (5):
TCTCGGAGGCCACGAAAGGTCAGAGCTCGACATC    3.63
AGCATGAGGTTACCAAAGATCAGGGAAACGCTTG    3.13
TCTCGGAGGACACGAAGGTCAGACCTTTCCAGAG    1.41
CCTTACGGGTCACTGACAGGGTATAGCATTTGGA    2.72
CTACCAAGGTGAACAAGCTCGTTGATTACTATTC    0.479

Hello, I would appreciate it if you could give PBM binding z-score for each entry below.
1. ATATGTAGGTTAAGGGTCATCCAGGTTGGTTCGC
2. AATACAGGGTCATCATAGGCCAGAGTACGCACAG
3. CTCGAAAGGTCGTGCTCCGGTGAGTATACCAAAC
4. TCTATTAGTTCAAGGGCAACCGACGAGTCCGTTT
5. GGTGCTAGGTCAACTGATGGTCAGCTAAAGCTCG
6. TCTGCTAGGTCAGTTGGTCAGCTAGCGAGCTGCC

Response:
1. 4.66
2. 4.77
3. 3.33
4. 1.45
5. 2.17
6. 0.453

Prompt: Identify PBM binding z-score associated with the sequence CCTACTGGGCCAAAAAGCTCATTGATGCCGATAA
Response: -0.724

###

- Test system: PPARg homodimer (NR concentration 180 nM)
- procedure_text: PBM binding z-score (relative to random genomic background probes); higher = stronger binding; sequences stand for … in GC…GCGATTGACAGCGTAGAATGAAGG
I would appreciate it if you labelled entries Criterion met when PBM binding z-score is 0.9 or higher, otherwise Criterion not met.

Prompt: Does the reported PBM binding z-score for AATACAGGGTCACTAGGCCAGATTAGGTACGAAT fall at or above the 0.9 mark?
Response: Criterion met

Data origin, for the record: the supplement of paper PMC6555819
